The reported numbers originate from paper PMC7694948.

Molecular target: Mitochondrial complex II (succinate dehydrogenase/coenzyme Q reductase) (Bos taurus, UniProt P31039+P35720+Q3T189+Q95123)
Construct: enzymatic activity of each complex derived from bovine heart mitochondria
Sequence (P31039 44-665): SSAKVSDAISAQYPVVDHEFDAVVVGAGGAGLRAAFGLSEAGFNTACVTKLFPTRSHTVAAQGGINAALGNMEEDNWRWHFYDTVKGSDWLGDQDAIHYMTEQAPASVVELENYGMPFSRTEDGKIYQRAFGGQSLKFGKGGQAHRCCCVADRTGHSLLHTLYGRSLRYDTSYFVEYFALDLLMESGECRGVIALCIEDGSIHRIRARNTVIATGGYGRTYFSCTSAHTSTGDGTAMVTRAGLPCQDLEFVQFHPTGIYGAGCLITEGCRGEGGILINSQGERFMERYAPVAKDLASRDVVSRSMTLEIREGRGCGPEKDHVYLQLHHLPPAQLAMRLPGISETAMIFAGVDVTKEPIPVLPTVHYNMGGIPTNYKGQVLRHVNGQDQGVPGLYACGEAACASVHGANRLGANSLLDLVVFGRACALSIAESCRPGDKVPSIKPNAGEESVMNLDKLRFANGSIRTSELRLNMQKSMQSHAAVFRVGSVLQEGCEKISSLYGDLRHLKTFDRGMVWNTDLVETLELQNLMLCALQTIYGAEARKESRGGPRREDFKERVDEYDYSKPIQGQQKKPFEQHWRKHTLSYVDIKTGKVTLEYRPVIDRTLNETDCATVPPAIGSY
Sequence (Q3T189 29-280): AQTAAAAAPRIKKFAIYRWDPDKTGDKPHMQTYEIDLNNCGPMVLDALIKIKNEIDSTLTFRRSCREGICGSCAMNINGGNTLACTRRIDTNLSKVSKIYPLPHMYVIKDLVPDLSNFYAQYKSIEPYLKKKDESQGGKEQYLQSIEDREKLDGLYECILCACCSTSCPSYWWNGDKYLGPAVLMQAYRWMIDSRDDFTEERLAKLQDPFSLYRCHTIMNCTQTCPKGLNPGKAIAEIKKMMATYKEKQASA
Sequence (P35720 30-169): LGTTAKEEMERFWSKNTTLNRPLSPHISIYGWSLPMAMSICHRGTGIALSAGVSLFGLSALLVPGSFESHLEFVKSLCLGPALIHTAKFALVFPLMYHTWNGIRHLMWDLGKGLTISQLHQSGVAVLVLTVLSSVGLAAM
Sequence (Q95123 56-158): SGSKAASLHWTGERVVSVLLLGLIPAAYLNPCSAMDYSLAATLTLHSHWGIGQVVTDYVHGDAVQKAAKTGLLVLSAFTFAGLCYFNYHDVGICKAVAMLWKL
Assay: MitoCheck Complex Activity Assay, complex II
Settings: bovine heart mitochondria
Measured IC50, listed per entry for reference.

Examples with their reported IC50 follow.
INSERT INTO results (molecule, endpoint_label, test_result) VALUES
  ('C/C=C/C=C/c1cc2c(C=O)c(O)c(CC=C(C)C)cc2o1', 'IC50', '> 100 µM'),
  ('COc1cc(O)c2c(c1)C(=O)c1cc(C)cc(O)c1C2=O', 'IC50', '90 µM');

Request: Fill in the blank: the reported IC50 of O=C(CC(=O)C(F)(F)F)c1cccs1 [thenoyltrifluoroacetone, reference compound] is ____.
Response: 68 µM

###

Biological target: Mitochondrial complex III (coenzyme Q cytochrome c oxidoreductase) (Bos taurus, UniProt P00125+P00157+P13272)
Sequence (P00125 85-325): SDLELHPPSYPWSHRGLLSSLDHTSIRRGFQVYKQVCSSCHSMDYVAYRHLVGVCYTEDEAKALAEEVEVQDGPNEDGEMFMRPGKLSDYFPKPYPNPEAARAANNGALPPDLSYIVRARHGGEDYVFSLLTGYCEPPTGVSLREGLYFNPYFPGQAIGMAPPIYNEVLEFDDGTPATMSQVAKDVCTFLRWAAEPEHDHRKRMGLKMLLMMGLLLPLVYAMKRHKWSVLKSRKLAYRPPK
Sequence (P00157 whole entry): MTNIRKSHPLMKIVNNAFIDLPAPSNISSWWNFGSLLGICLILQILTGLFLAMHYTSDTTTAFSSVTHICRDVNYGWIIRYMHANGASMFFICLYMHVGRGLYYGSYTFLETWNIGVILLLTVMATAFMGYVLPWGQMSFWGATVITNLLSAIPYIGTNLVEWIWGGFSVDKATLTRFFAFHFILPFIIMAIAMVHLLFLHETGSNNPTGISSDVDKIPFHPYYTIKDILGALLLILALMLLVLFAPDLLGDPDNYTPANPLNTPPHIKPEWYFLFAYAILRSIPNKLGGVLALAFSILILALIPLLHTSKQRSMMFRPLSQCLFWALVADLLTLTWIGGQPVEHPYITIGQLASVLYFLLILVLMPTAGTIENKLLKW
Sequence (P13272 whole entry): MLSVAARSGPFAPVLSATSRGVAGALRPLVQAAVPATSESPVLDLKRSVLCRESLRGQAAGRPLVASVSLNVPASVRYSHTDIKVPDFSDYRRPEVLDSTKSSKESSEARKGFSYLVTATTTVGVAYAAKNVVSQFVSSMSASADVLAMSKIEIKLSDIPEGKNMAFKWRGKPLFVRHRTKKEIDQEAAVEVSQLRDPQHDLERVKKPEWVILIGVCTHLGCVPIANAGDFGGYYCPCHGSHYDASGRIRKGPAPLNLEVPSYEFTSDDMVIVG
Test: MitoCheck Complex Activity Assay, complex III
Assay type: biochemical, bovine
Settings: bovine heart mitochondria
pIC50: −log10 of the molar value.
Endpoint label: pIC50

INSERT INTO results (molecule, endpoint_label, test_result) VALUES
  ('C/C=C/C=C/c1cc2c(C=O)c(O)c(CC=C(C)C)cc2o1 [Compound 2]', 'pIC50', '< 4.00');

Lab note: next molecule to report on.
Request: Fill in the blank: the reported pIC50 of COc1cc(O)c2c(c1)C(=O)c1cc(C)cc(O)c1C2=O [Compound 1, physcion] is ____.
Response: < 4.00

###

Molecular target: Mitochondrial complex III (coenzyme Q cytochrome c oxidoreductase) (Bos taurus, UniProt P00125+P00157+P13272)
Experiment: MitoCheck Complex Activity Assay, complex III
Type: biochemical, bovine
Endpoint label: IC50 (nM)
Use nM as the unit, but write only the number.

Request: Fill in the blank: the reported IC50 of CCCCCC[C@H]1C(=O)O[C@H](C)[C@H](NC(=O)c2cccc(NC=O)c2O)C(=O)O[C@@H](C)[C@@H]1OC(=O)CC(C)C [Antimycin A, reference compound] is ____.
Response: 30

###

System: human pancreatic carcinoma PANC-1 cells
Test: Cytotoxicity against PANC-1 cells under glucose-deficient or general culture conditions (WST-8)
Type: cell-based
Settings: Homo sapiens; PANC-1, general glucose medium; 12 h treatment; WST-8
Endpoint label: IC50

Examples with their reported IC50 follow.
INSERT INTO assay_data (compound, test_result) VALUES
  ('COc1cc(O)c2c(c1)C(=O)c1cc(C)cc(O)c1C2=O', '1020 µM'),
  ('CCCCCC[C@H]1C(=O)O[C@H](C)[C@H](NC(=O)c2cccc(NC=O)c2O)C(=O)O[C@@H](C)[C@@H]1OC(=O)CC(C)C [Antimycin A, reference compound]', '288 µM');

Lab note: next compound to report on.
Request: Fill in the blank: the reported IC50 of "C/C=C/C=C/c1cc2c(C=O)c(O)c(CC=C(C)C)cc2o1" is ____.
Response: 859 µM

###

Measured pIC50, listed per entry for reference.
Target: Mitochondrial complex IV (cytochrome c oxidase) (Bos taurus, UniProt P00396+P00415+P68530)
Construct: enzymatic activity of each complex derived from bovine heart mitochondria
Experiment: MitoCheck Complex Activity Assay, complex IV
Conditions: bovine heart mitochondria
Bear in mind: pIC50 is minus log10 of a mol/L concentration; give just that figure.

INSERT INTO results (smiles_text, tgt, endpoint_label, test_result) VALUES
  ('COc1cc(O)c2c(c1)C(=O)c1cc(C)cc(O)c1C2=O', 'Mitochondrial complex IV (cytochrome c oxidase) (Bos taurus, UniProt P00396+P00415+P68530)', 'pIC50', 4.47);

Lab note: next molecule to report on.
Request: Fill in the blank: the reported pIC50 of "C/C=C/C=C/c1cc2c(C=O)c(O)c(CC=C(C)C)cc2o1" is ____.
Response: 4.70
